Values from patent US20090209527A1

Tested on: Mesencephalic dopaminergic neuron cultures
Test Summary: Dopaminergic uptake assay (3H-dopamine uptake after MPP+ exposure)
Format: cell-based, rat
Measurement Parameters: Rattus norvegicus, Neuron, read-out: EC50 in dopaminergic uptake assays
Method: Mesencephalic dopaminergic neuron cultures were prepared as described in Pong et al., J. Neurochem. 69: 986-994, 1997, which is incorporated herein by reference in its entirety. Embryonic day 15 (E15) rat fetuses were collected and dissected in ice-cold phosphate-buffered saline (PBS). The ventral piece of tissue compromising the mesencephalic dopaminergic region was dissected out. […]
pEC50: −log10 of the molar value.
Readout Name: pEC50

Req: Given CO[C@H]1C[C@@H]2CC[C@@H](C)[C@@](O)(O2)C(=O)C(=O)N2CCCC[C@H]2C(=O)O[C@H]([C@H](C)C[C@@H]2CC[C@@H](O)[C@H](OC)C2)CC(=O)[C@H](C)/C=C(\C)[C@@H](O)[C@@H](OC)C(=O)[C@H](C)C[C@H](C)/C=C/C=C/C=C/1C [rapamycin] , state its recorded pEC50.
Resp: < 6.00

Req: Let us now turn to CO[C@H]1C[C@@H]2CC[C@@H](C)[C@@](O)(O2)C(=O)C(=O)N2CCCC[C@H]2C(=O)O[C@H]([C@H](C)C[C@@H]2CC[C@@H](O)[C@H](OC)C2)CC(=O)[C@H](C)/C=C(\C)[C@@H](O)[C@@H](OC)C(=O)[C@H](C)C[C@H](C)[C@@H]2C=C[C@H](/C=C/1C)ON2c1ccccc1 [Example 1]
Resp: > 6.00

Req: Let us now turn to CO[C@H]1C[C@@H]2CC[C@@H](C)[C@@](O)(O2)C(=O)C(=O)N2CCCC[C@H]2C(=O)O[C@H]([C@H](C)C[C@@H]2CC[C@@H](OC(=O)C(C)(CO)CO)[C@H](OC)C2)CC(=O)[C@H](C)/C=C(\C)[C@@H](O)[C@@H](OC)C(=O)[C@H](C)C[C@H](C)/C=C/C=C/C=C/1C [CCI-779, reference compound]
Resp: < 6.00

Req: Let us now turn to CO[C@H]1C[C@@H]2CC[C@@H](C)[C@@](O)(O2)C(=O)C(=O)N2CCCC[C@H]2C(=O)O[C@H]([C@H](C)C[C@@H]2CC[C@@H](OC(=O)C(C)(C)Cc3ccccn3)[C@H](OC)C2)CC(=O)[C@H](C)/C=C(\C)[C@@H](O)[C@@H](OC)C(=O)[C@H](C)C[C@H](C)C2C=CC(/C=C/1C)ON2c1ccccc1 [Example 6]
Resp: > 6.00
